# System: MCF7 breast
# assay.overview: NCI tumour cell line growth inhibition, 48 h
Field: TGI. Provide a value for each of the compounds that follow.

Recorded results for 6 compounds are shown here.
CN(C)CC1CCC/C(=C\c2ccc(N(C)C)cc2)C1=O (centres undefined) ... 2.82 µM
CC(=O)N[C@@H](Cc1ccc(O)cn1)C(=O)NCc1cccc(F)c1 ... > 100 µM
OCC1SC(n2cnc3cncnc32)C(O)C1O (centres undefined) ... > 100 µM
Cc1ccc(NS(=O)(=O)c2ccc(-c3cnc(C4CC4)o3)cc2)cc1 ... 14.9 µM
CCOC(=O)c1ccc(NC2Oc3cc4c(cc3C(c3cc(OC)c(OC)c(OC)c3)C2C)OCO4)cc1 (centres undefined) ... > 48.5 µM
CCOC(=O)c1cc2cc(Cc3ccc4[nH]c(C(=O)OCC)cc4c3)ccc2[nH]1 ... > 100 µM

Okay, here is my list. What is TGI for each of these?
1. CCCC[C@@H]1NC(=O)[C@H](CCCCN)NC(=O)[C@H](CCCNC(=N)N)NC(=O)[C@H](CC(C)C)NC(=O)[C@@H](NC(=O)[C@H](Cc2cccc(Cl)c2)NC(=O)[C@@H]2CCCN2C(=O)[C@@H](NC(C)=O)C(C)C)CCSSC[C@@H](C(=O)N[C@@H](CCCCN)C(=O)N2CCC[C@H]2C(=O)N2CCC[C@H]2C(=O)N[C@@H](CCC(=O)O)C(N)=O)NC(=O)[C@H](Cc2ccccc2)NC(=O)[C@H](CO)NC(=O)[C@H](C)NC(=O)[C@@H]2CCCN2C1=O
2. O=C(Cn1ccnc1[N+](=O)[O-])N(CCO)CCO
3. O=S(=O)(Nc1ccc(-c2nc(-c3cccc(OCCN4CCOCC4)c3)c(-c3ccnc(Br)c3)[nH]2)cc1)c1ccccc1

[out]
> 50 µM
> 1250 µM
8.51 µM

###

# Tested on: CAKI-1 renal
# assay.overview: NCI tumour cell line growth inhibition, 48 h
Field: TGI. Provide a value for each of the compounds that follow.

COc1cc(OC)cc(N2CCC(c3c(N)nc(N)nc3Cl)CC2)c1 ... > 100 µM
N#CI1OC(=O)c2ccccc21 ... > 100 µM
CN(CCNC(=O)c1[nH]nc2c1ccc1ccccc12)CCNC(=O)c1[nH]nc2c1ccc1ccccc12 ... > 76.2 µM
O=S(=O)(c1cccc(C(F)(F)F)c1)N1c2ccccc2-n2cccc2C1c1cccnc1 (stereo unspecified) ... > 100 µM
C[N+]1(C)CC=C(N2CCOCC2)CC1 ... > 10 µM

Okay, here is my list. What is TGI for each of these?
1. O=c1/c(=C/c2cccc3ccccc23)sc2nc3ccccc3n12
2. CCOC(=O)CC(C)C(C#N)(OP1(=O)OC(c2ccccc2)C(C)N1C)c1ccccc1 (stereo unspecified)
3. O=C(Cc1ccc(Cl)c(Cl)c1)NCCCN1CCN(CCCN2CCCCC2)CC1
4. CN(C)[C@@H]1C(=O)C(C(N)=O)=C(O)[C@@]2(O)C(=O)C3=C(O)c4c(O)cccc4C[C@H]3C[C@@H]12
5. CC1C(c2ccc(N(C)C)cc2)c2cc3c(cc2OC1N1CCCC1)OCO3 (stereo unspecified)
6. O=C(CCSC(CC(=O)c1ccc(Cl)cc1)c1ccc(Cl)cc1)Nc1ccc(Cl)cc1 (stereo unspecified)

[out]
> 100 µM
> 100 µM
41.3 µM
4.3 µM
> 100 µM
57.2 µM

Every entry's value here was drawn from PubChem BioAssay (NCI).
